// reported Kd per item
Molecular target: FGFR3 (Homo sapiens, UniProt P22607)
Construct: made in house; host or cells: E. coli derived from BL21, infected with T7 phage
Sequence (P22607 23-806): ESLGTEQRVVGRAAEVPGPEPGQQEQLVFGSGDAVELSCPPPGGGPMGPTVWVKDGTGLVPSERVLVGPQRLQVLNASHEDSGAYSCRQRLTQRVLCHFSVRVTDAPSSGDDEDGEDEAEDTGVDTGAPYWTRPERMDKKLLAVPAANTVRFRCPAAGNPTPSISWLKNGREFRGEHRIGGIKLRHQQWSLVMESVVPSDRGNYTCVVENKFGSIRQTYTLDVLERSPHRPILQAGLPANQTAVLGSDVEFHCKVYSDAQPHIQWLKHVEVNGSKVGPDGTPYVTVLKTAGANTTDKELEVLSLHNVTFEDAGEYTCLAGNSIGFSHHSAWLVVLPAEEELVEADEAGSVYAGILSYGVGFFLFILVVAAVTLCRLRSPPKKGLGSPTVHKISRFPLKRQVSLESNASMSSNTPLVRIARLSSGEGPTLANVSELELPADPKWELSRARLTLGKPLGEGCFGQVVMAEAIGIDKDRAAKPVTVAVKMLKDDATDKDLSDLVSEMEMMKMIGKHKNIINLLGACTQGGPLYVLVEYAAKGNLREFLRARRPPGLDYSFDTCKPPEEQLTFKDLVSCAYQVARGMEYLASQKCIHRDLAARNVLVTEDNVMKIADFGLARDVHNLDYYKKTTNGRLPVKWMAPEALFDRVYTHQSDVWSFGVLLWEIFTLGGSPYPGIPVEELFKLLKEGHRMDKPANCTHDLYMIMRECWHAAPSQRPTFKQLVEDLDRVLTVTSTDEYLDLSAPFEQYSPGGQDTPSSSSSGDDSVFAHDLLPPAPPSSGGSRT
Assay: Kinase binding assay (kinase-tagged T7 phage, affinity beads, qPCR readout), FGFR3
Conditions: FGFR binding data

Examples with answers:
{"Line notation": "C=CC(=O)Nc1ccc2c(c1)c(C)cn2-c1nc(Nc2cn(C)nc2C)nnc1Cl", "Target system": "FGFR3 (Homo sapiens, UniProt P22607)", "Measurement kind": "Kd", "Result": "250 to 1000 nM"}
{"Line notation": "C=CC(=O)Nc1ccc2c(c1)c(C)cn2-c1nc(Nc2cnn(C[C@@H](C)OC)c2)ncc1F", "Target system": "FGFR3 (Homo sapiens, UniProt P22607)", "Measurement kind": "Kd", "Result": "0.1 to 100 nM"}
{"Line notation": "CC#CC(=O)Nc1cnc2c(c1)c(C)cn2-c1nc(Nc2ccnn2C)ncc1F", "Target system": "FGFR3 (Homo sapiens, UniProt P22607)", "Measurement kind": "Kd", "Result": "> 1000 nM"}

Write Kd of `C=C(C)C(=O)Nc1ccc2c(c1)c(C)cn2-c1nc(Nc2ccnn2C)ncc1C` ; system used: FGFR3 (Homo sapiens, UniProt P22607) > 1000 nM
